Catalogue of molecules with associated pIC50
Tested on: human cervical tumor cell line HeLa (ATCC CCL-2)
Assay: SAC-Formation - Nocodazole-Induced Assay
Assay type: cell-based
Conditions: Homo sapiens, HeLa, 24 h, HeLa cells, nocodazole 0.1 μg/ml together with test compound, decrease of mitotic cells (phospho-histone H3 Ser10)
pIC50: −log10 of the molar value.

- molecule: "Cc1nsc(Nc2cnc3ccccc3n2)c1C(=O)Nc1ccc(OC2CCN(CC(F)(F)F)CC2)nc1"
  pIC50: 7.21
- molecule: "Cc1nsc(Nc2cnc(C(F)(F)F)cn2)c1C(=O)Nc1ccc(F)c(O[C@H]2CCN(CC(F)(F)F)C2)c1"
  pIC50: 8.38
- molecule: "Cc1nsc(Nc2cc(C#N)ccn2)c1C(=O)Nc1ccc(NC(=O)OC(C)(C)C)cc1"
  pIC50: 5.41
- molecule: "Cc1nsc(Nc2cc(C#N)ccn2)c1C(=O)Nc1ccc(OCCCNCC(F)F)nc1"
  pIC50: 5.46
- molecule: "Cc1nsc(Nc2cnc(C(F)(F)F)cn2)c1C(=O)Nc1ccc(OC2CCCN(CC(F)(F)F)C2)nc1 (stereo not drawn)"
  pIC50: 8.21
- molecule: "Cc1nsc(Nc2cnc3ccccc3n2)c1C(=O)Nc1cccc(C(=O)NCC(=O)OC(C)(C)C)c1"
  pIC50: 6.00
- molecule: "Cc1nsc(Nc2cnc(C(F)(F)F)cn2)c1C(=O)Nc1ccc(OC[C@H]2CCN(CCC(F)(F)F)C2)nc1"
  pIC50: 7.44
- molecule: "Cc1nsc(Nc2cnc3ccccc3n2)c1C(=O)Nc1cccc(C(=O)N2CCN(C(=O)c3ccccc3)CC2)c1"
  pIC50: 7.51
- molecule: "CC(=O)N1CCC(Oc2ccc(NC(=O)c3c(C)nsc3Nc3cncc(C(F)(F)F)n3)cn2)CC1"
  pIC50: 6.68
- molecule: "Cc1nsc(Nc2cncc(C(F)(F)F)n2)c1C(=O)Nc1ccc(OCCNC(=O)OC(C)(C)C)c(F)c1"
  pIC50: 6.85
- molecule: "Cc1nsc(Nc2cnc3ccccc3n2)c1C(=O)Nc1cccc(NS(=O)(=O)C2CN(CC(F)F)C2)c1"
  pIC50: 5.39
- molecule: "Cc1nsc(Nc2cncc(C(F)(F)F)n2)c1C(=O)Nc1ccc(OCCNC(=O)OC(C)(C)C)nc1"
  pIC50: 7.23
- molecule: "Cc1nsc(Nc2cnc(C(F)(F)F)cn2)c1C(=O)Nc1ccc(F)c(OC[C@H]2CCCN(CCC(F)(F)F)C2)c1"
  pIC50: 6.68
- molecule: "CC(=O)N1CCN(C(=O)c2cccc(NC(=O)c3c(C)nsc3Nc3cnc4ccccc4n3)c2)CC1"
  pIC50: 5.66
- molecule: "Cc1nsc(Nc2cnc(C(F)(F)F)cn2)c1C(=O)Nc1ccc(OCCCNCC(F)(F)F)nc1"
  pIC50: 6.01
- molecule: "Cc1nsc(Nc2cnc3ccccc3n2)c1C(=O)Nc1cccc(C(=O)NC(C)C)c1"
  pIC50: 6.08
- molecule: "Cc1nsc(Nc2cnc(C(F)(F)F)cn2)c1C(=O)Nc1ccc(OCC2CCN(CC(F)F)C2)nc1 (stereo not drawn)"
  pIC50: 7.41
- molecule: "COCCOc1ccc(NC(=O)c2c(C)nsc2Nc2nc3c(C(F)(F)F)cccc3s2)cc1F"
  pIC50: 7.14
- molecule: "Cc1nsc(Nc2ccc(C#N)cn2)c1C(=O)Nc1ccc(OC[C@H]2CCN(CC(F)(F)F)C2)nc1"
  pIC50: 7.07
- molecule: "Cc1nsc(Nc2cncc(C(F)(F)F)n2)c1C(=O)Nc1ccc(F)c(OC2CCN(CC(F)F)CC2)c1"
  pIC50: 7.42
- molecule: "Cc1nsc(Nc2cnc3ccccc3n2)c1C(=O)Nc1cccc(C(=O)N(C)CCCN(C)C)c1"
  pIC50: 6.96
- molecule: "Cc1nsc(Nc2cnc3ccccc3n2)c1C(=O)Nc1ccc(NCCNC(=O)OC(C)(C)C)nc1"
  pIC50: 5.43
- molecule: "Cc1nsc(Nc2cnc(C(F)(F)F)cn2)c1C(=O)Nc1ccc(OC[C@@H]2CCN(CC(F)(F)F)C2)nc1"
  pIC50: 7.82
- molecule: "Cc1nsc(Nc2cc(C#N)ccn2)c1C(=O)Nc1ccc(OCCCN)nc1"
  pIC50: 4.70
- molecule: "Cc1nsc(Nc2cnc(C(F)(F)F)cn2)c1C(=O)Nc1ccc(OCCNC(=O)OC(C)(C)C)c(F)c1"
  pIC50: 6.68
- molecule: "Cc1nsc(Nc2cnc(C(F)(F)F)cn2)c1C(=O)Nc1ccc(F)c(OCC2CCN(CCC(F)(F)F)CC2)c1"
  pIC50: 6.89
- molecule: "Cc1nsc(Nc2cnc(C(F)(F)F)cn2)c1C(=O)Nc1ccc(F)c(OC2CCN(CCF)CC2)c1"
  pIC50: 6.82
- molecule: "Cc1nsc(Nc2ccc(C#N)cn2)c1C(=O)Nc1ccc(OC2CCCN(CC(F)F)C2)nc1 (stereo not drawn)"
  pIC50: 7.82
- molecule: "Cc1nsc(Nc2cnc(C(F)(F)F)cn2)c1C(=O)Nc1ccc(F)c(OCC2CCCN(CCC(F)(F)F)C2)c1 (stereo not drawn)"
  pIC50: 7.57
- molecule: "Cc1nsc(Nc2cc(C#N)ccn2)c1C(=O)Nc1ccc(OC2CCN(C(=O)OC(C)(C)C)CC2)nc1"
  pIC50: 7.31
